Provide the reported normalized growth of each item.
assay: chemical genetic growth profiling, strain panel (AID 1159580);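 also: tested at 20 µM; growth read once vehicle control cultures reached saturation at 30 °C; 1 = growth at the plate median or of vehicle wells; lower values mean less growth of the strain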; conditions: S. cerevisiae deletion strains, growth OD, locus YOR231W, strain MKK1, active compounds read low
Screen size: about 5,500 compounds; about 2,000 (36%) were called active. Inconclusive results (about 18%) are left out. The list shows a part of the results.
# respond with the number and nothing more

Exercise: So what's the measured normalized growth for this one? CC(C)(C)NCC(O)COc1cccc2c1CCCC2=O (centres undefined)
Solution: 0.977

Exercise: So what's the measured normalized growth for this one? COC(=O)C(c1ccccc1)C1CCCCN1 (centres undefined)
Solution: 0.971

Exercise: So what's the measured normalized growth for this one? COC(=O)NC(=S)Nc1ccccc1NC(=S)NC(=O)OC
Solution: 0.986

Exercise: So what's the measured normalized growth for this one? NCCCN
Solution: 0.987

Exercise: So what's the measured normalized growth for this one? O=C(CCCN1CCC(O)(c2ccc(Br)cc2)CC1)c1ccc(F)cc1
Solution: 0.981

Exercise: So what's the measured normalized growth for this one? CC(=O)[C@@]1(O)CCC2C3C=C(Cl)C4=CC(=O)[C@@H]5CC5[C@]4(C)C3CC[C@@]21C (some centres undefined)
Solution: 1.01

Exercise: So what's the measured normalized growth for this one? CCOC(=O)NC(=S)Nc1ccc(C(C)(C)C)cc1NC(=S)NC(=O)OCC
Solution: 0.997

Exercise: So what's the measured normalized growth for this one? OC1(c2ccc(Cl)c(C(F)(F)F)c2)CCN(CCCC(c2ccc(F)cc2)c2ccc(F)cc2)CC1
Solution: 0.981

Exercise: So what's the measured normalized growth for this one? O=C1CC2(CCCC2)CC(=O)N1CCCCN1CCN(c2ncccn2)CC1
Solution: 1.01

----------
assay: chemical genetic growth profiling, strain panel (AID 1159580);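 also: tested at 20 µM; growth read once vehicle control cultures reached saturation at 30 °C; 1 = growth at the plate median or of vehicle wells; lower values mean less growth of the strain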; details: S. cerevisiae deletion strains, growth OD, locus YOR231W, strain MKK1, active compounds read low
In all, about 5,500 compounds went through this assay and about 2,000 (36%) were called active. Roughly 18% stayed inconclusive and do not appear here. Some of the results follow.
Provide the reported normalized growth of each item.
# respond with the number and nothing more

Exercise: So what's the measured normalized growth for this one? O=C(O)C1=CC(=C(c2ccc(O)c(C(=O)O)c2)c2ccc(O)c(C(=O)O)c2)C=CC1=O
Solution: 1.01

Exercise: So what's the measured normalized growth for this one? CSCCC(N)C(=O)NC(CC(C)C)C(=O)NC(Cc1ccccc1)C(=O)O (stereo not given)
Solution: 1

Exercise: So what's the measured normalized growth for this one? O=c1[nH][nH]c(=O)n1CCCc1cc2cccc3ccc4cccc1c4c32
Solution: 0.972

Exercise: So what's the measured normalized growth for this one? O=C(NNc1cc(C(F)(F)F)cc(C(F)(F)F)c1)c1cnc2n(c1=O)CCS2
Solution: 0.979

Exercise: So what's the measured normalized growth for this one? CCCCC(=O)O[C@]1(C(=O)CO)[C@@H](C)CC2C3CCC4=CC(=O)C=C[C@]4(C)[C@@]3(F)C(O)C[C@@]21C (stereo not given in full)
Solution: 0.976

----------
experiment: chemical genetic growth profiling, strain panel (AID 1159580);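 also: tested at 20 µM; growth read once vehicle control cultures reached saturation at 30 °C; 1 = growth at the plate median or of vehicle wells; lower values mean less growth of the strain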; settings: S. cerevisiae deletion strains, growth OD, locus YCL069W, strain vba3, active compounds read low
The whole screen tested about 5,500 compounds, of which about 2,000 (36%) were called active. Inconclusive results (about 18%) are left out. The list shows a part of the results.
measurement_label: normalized growth
# respond with the number and nothing more

Exercise: So what's the measured normalized growth for this one? COC(=O)C[C@H]1C(C)(C)[C@@H](O)[C@@H]2CC3=C4CC(O)O[C@@H](c5ccoc5)[C@]4(C)CCC3[C@@]1(C)C2=O (stereo not given in full)
Solution: 1.01

Exercise: So what's the measured normalized growth for this one? COc1cc2c(cc1OC)-c1c(oc3cc(O)cc(O)c3c1=O)CO2
Solution: 1.01

Exercise: So what's the measured normalized growth for this one? CC1=CC(=O)C2C(C)(C)CCC[C@]2(C)[C@@]1(O)CCc1ccoc1 (stereo not given in full)
Solution: 1.01

Exercise: So what's the measured normalized growth for this one? COc1ccc(-c2cc(=O)c3c(O)c(OC)c(OC)c(OC)c3o2)cc1OC
Solution: 1.01

Exercise: So what's the measured normalized growth for this one? COc1ccc(-c2cc(=O)c3c(O)cc(O)cc3o2)cc1
Solution: 0.967

Exercise: So what's the measured normalized growth for this one? NC[C@H]1O[C@H](OC2[C@@H](N)C[C@@H](N)[C@H](O[C@H]3O[C@H](CO)[C@@H](O)[C@H](N)[C@H]3O)[C@H]2O)[C@H](O)[C@@H](O)[C@@H]1O (stereo not given in full)
Solution: 0.998

Exercise: So what's the measured normalized growth for this one? CCC(=O)NCC[C@@H]1CCc2ccc3c(c21)CCO3
Solution: 1

Exercise: So what's the measured normalized growth for this one? COC1CC(O[C@H]2CC[C@]3(C=O)C4CC[C@]5(C)C(C6=CC(=O)OC6)CC[C@]5(O)C4CC[C@]3(O)C2)OC(C)C1O (stereo not given in full)
Solution: 0.969

Exercise: So what's the measured normalized growth for this one? CCn1nc(C(=O)O)c(=O)c2cc3c(cc21)OCO3
Solution: 1.01

Exercise: So what's the measured normalized growth for this one? CC(=O)O[C@@H]1c2c(ccc3ccc(=O)oc23)OC(C)(C)[C@@H]1OC(=O)CC(C)C
Solution: 1.01

Exercise: So what's the measured normalized growth for this one? COc1cc(-c2cc(=O)c3c(O)c(OC)c(OC)c(OC)c3o2)cc(OC)c1OC
Solution: 1.01

Exercise: So what's the measured normalized growth for this one? COc1c(O)cc2c(c1O)[C@H]1O[C@H](CO)[C@@H](O)[C@H](O)[C@@H]1OC2=O
Solution: 1.02

Exercise: So what's the measured normalized growth for this one? COc1ccc(-c2cc(=O)c3c(O)cc(O)c(-c4cc(-c5cc(=O)c6c(O)cc(O)cc6o5)ccc4OC)c3o2)cc1
Solution: 1.01

Exercise: So what's the measured normalized growth for this one? CC(C)(C)NCC(O)COc1cccc2c1C[C@H](O)[C@H](O)C2 (stereo not given in full)
Solution: 1

Exercise: So what's the measured normalized growth for this one? C/C=C/CC(C)C(O)C1C(=O)NC(CC)C(=O)N(C)CC(=O)N(C)C(CC(C)C)C(=O)NC(C(C)C)C(=O)N(C)C(CC(C)C)C(=O)NC(C)C(=O)NC(C)C(=O)N(C)C(CC(C)C)C(=O)N(C)C(CC(C)C)C(=O)N(C)C(C(C)C)C(=O)N1C (stereo not given)
Solution: 1.02

----------
assay: chemical genetic growth profiling, strain panel (AID 1159580);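 also: tested at 20 µM; growth read once vehicle control cultures reached saturation at 30 °C; 1 = growth at the plate median or of vehicle wells; lower values mean less growth of the strain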; conditions: S. cerevisiae deletion strains, growth OD, locus YPL153C, strain RAD53, active compounds read low
Among all 5,500 compounds or so, about 2,000 (36%) were called active. Roughly 18% stayed inconclusive and do not appear here. Some of the results follow.
measurement_label: normalized growth
# respond with the number and nothing more

Exercise: So what's the measured normalized growth for this one? O=c1cc(CSc2ccc(Cl)cc2)c2ccc(O)cc2o1
Solution: 0.442

Exercise: So what's the measured normalized growth for this one? CN(C)/C=C1\CSc2ccc(Cl)cc2C1=O
Solution: 0.752

Exercise: So what's the measured normalized growth for this one? O=C(Nc1ccccc1C(=O)O)OCC1c2ccccc2-c2ccccc21
Solution: 0.855

Exercise: So what's the measured normalized growth for this one? CC(C)(C)NC(=S)N/N=C\c1cc(Br)c(O)c(Br)c1
Solution: 0.953

Exercise: So what's the measured normalized growth for this one? O=C(Nc1cc2ccccc2s1)N1CCN(Cc2c(F)cccc2Cl)CC1
Solution: 0.917

Exercise: So what's the measured normalized growth for this one? ONC(=Nc1ccccc1Cl)c1ccccc1Cl
Solution: 0.777

Exercise: So what's the measured normalized growth for this one? O=C(NC(=S)NNc1ncc(C(F)(F)F)cc1Cl)c1cccs1
Solution: 0.283

Exercise: So what's the measured normalized growth for this one? N/C(=N/OC(=O)c1cnn(-c2ccc([N+](=O)[O-])cc2)c1C(F)(F)F)c1ccc(Cl)cc1
Solution: 0.976

Exercise: So what's the measured normalized growth for this one? COc1ccc(Br)c(C(=O)/C(C#N)=C/c2cccs2)c1
Solution: 0.198

Exercise: So what's the measured normalized growth for this one? O=S(=O)(Nc1ccccc1Sc1c(Cl)cncc1Cl)c1ccc(Cl)cc1
Solution: 0.994

Exercise: So what's the measured normalized growth for this one? O=C1Nc2ccccc2/C1=C\c1cccc2ccccc12
Solution: 0.78

Exercise: So what's the measured normalized growth for this one? N/C(=N/OC(=O)c1ccc([N+](=O)[O-])cc1)c1c(Cl)cccc1Cl
Solution: 0.693

Exercise: So what's the measured normalized growth for this one? N#C/C(N=Cc1cc(Cl)cc(Cl)c1O)=C(\C#N)N=Cc1cc(Cl)cc(Cl)c1O
Solution: 0.538

Exercise: So what's the measured normalized growth for this one? CC1(C)C=Cc2cc(/C(N)=N\OC(=O)Nc3cccc(C(F)(F)F)c3)ccc2O1
Solution: 0.871
